Overview of reported Ki across a group of molecules:
- SYSTEM NAME: α-receptor
- ASSAY DETAILS: Binding affinity to α-adrenoceptor, [3H]prazosin, rat cerebral cortical membrane
- EXPERIMENTAL SETUP: [3H]prazosin 200 pM, 25° C., 30 min, read-out: Dissociation constant Ki (M) for cerebral α-receptor of rat
TEST READOUT: Ki (M)

MOLECULE: Oc1ccc(CC2NCCc3cc(O)c(O)cc32)cc1 (stereo not drawn) [Higenamine, reference compound]
SYSTEM NAME: α-receptor
TEST READOUT: Ki
UNIT INFO: M
VALUE MEASURED: 1.26e-06
//
MOLECULE: Oc1cc2c(cc1O)C(Cc1cccc3ccccc13)NCC2 (stereo not drawn)
SYSTEM NAME: α-receptor
TEST READOUT: Ki
UNIT INFO: M
VALUE MEASURED: 2.7e-07
//
MOLECULE: Oc1cc2c(cc1O)C(Cc1ccc3ccccc3c1)NCC2 (stereo not drawn)
SYSTEM NAME: α-receptor
TEST READOUT: Ki
UNIT INFO: M
VALUE MEASURED: 1.5e-07

The reported numbers originate from patent US6562837B1.
